# PROTOCOL_TEXT: chemical genetic growth profiling, strain panel (AID 1159580);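 note: tested at 20 µM; growth read once vehicle control cultures reached saturation at 30 °C; 1 = growth at the plate median or of vehicle wells; lower values mean less growth of the strain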
# EXPERIMENTAL_SETUP: S. cerevisiae deletion strains, growth OD, locus YAL030W, strain snc1, hits give low values
Hit rate of the full screen: of about 5,500 compounds, about 2,000 (36%) were called active. Not shown: some 18% with an inconclusive outcome. The list shows a part of the results.
# maps each entry to its normalized growth

# MOLECULE, normalized growth
records = [
    ("CC(=O)O[C@H]1C[C@@H](O)C(C)(C)C2C[C@@H](OC(C)=O)[C@]3(C)C(CC[C@@]4(C)[C@H](c5ccoc5)OC(=O)C5OC543)[C@]21C (stereo partly specified)", 1),
    ("O=C1c2c(O)ccc(O)c2C(=O)c2c(NCCNCCO)ccc(NCCNCCO)c21", 0.839),
    ("COc1cc([C@@H]2c3cc4c(cc3[C@H](O)[C@H]3COC(=O)[C@@H]23)OCO4)cc(OC)c1OC", 1.02),
    ("CCCN1C[C@H](CSC)C[C@@H]2c3cccc4[nH]cc(c34)C[C@H]21", 1.02),
    ("C[n+]1cc2c3c(ccc2c2ccc4cc5c(cc4c21)OCO5)OCO3", 0.676),
    ("COc1cc2c(cc1OC)-c1cc3ccc(OC)c(OC)c3c[n+]1CC2", 0.988),
    ("COc1ccc2cc3[n+](cc2c1OC)CCc1cc2c(cc1-3)OCO2", 0.996),
    ("COc1cc2cc[n+]3cc4c(OC)c(OC)ccc4cc3c2cc1OC", 0.965),
    ("CCN(CC)CCNc1ccc(CO)c2sc3ccccc3c(=O)c12", 1.01),
    ("O=c1c(-c2ccc(O)cc2)coc2cc(O)cc(O)c12", 1.01),
    ("CC1=CCc2c(cc3oc(C)cc(=O)c3c2O)OC1", 0.972),
    ("N[C@@H]1CONC1=O", 0.973),
    ("CCCCCCCCCc1ccc(O)cc1", 0.0571),
    ("O=c1c(-c2cc(O)c(O)c(O)c2)coc2cc(O)c(O)c(O)c12", 0.999),
    ("O=C(/C=C/c1ccccc1)c1ccc(O)cc1", 0.247),
    ("CC(=O)O[C@H]1C[C@H](O[C@H]2[C@@H](O)C[C@H](O[C@H]3[C@@H](O)C[C@H](O[C@H]4CC[C@@]5(C)C(CCC6C5C[C@@H](O)[C@]5(C)[C@@H](C7=CC(=O)OC7)CC[C@]65O)C4)O[C@@H]3C)O[C@@H]2C)O[C@H](C)[C@H]1O[C@@H]1O[C@H](CO)[C@@H](O)[C@H](O)[C@H]1O (stereo partly specified)", 1),
    ("COc1ccc(C(=O)/C=C/c2ccccc2)cc1", 0.951),
    ("CC1(C)O[C@@H]2CC3C4C[C@H](F)C5=CC(=O)C=C[C@]5(C)[C@@]4(F)[C@@H](O)C[C@]3(C)[C@]2(C(=O)CO)O1 (stereo partly specified)", 1.01),
    ("COc1ccc(-c2cc(=O)c3c(OC(C)=O)cc(OC(C)=O)cc3o2)cc1", 0.99),
    ("Cc1cc2cc3c(C)cc(=O)oc3c(C)c2o1", 1.01),
    ("O=C1CCc2cc(OCCCCc3nnnn3C3CCCCC3)ccc2N1", 0.985),
    ("C=C1C2CC[C@@]3(C)[C@H](c4ccoc4)OC(=O)C[C@]13O[C@H]1CC(=O)C(C)(C)[C@H](C(O)C(=O)OC)[C@@]21C (stereo partly specified)", 0.995),
    ("CC(=O)O[C@@H]1CC2C(C)(C)C(=O)CC[C@]2(C)C2CC[C@@]3(C)[C@H](c4ccoc4)OC(=O)C4OC43[C@@]21C (stereo partly specified)", 0.987),
    ("CC(=O)O[C@H]1C[C@@]2(C)[C@H](c3ccoc3)OC(=O)[C@H]3O[C@]32[C@@]2(C)C1[C@]1(C)C(C[C@H]2OC(C)=O)C(C)(C)[C@H](OC(C)=O)C[C@@H]1OC(C)=O (stereo partly specified)", 0.997),
    ("O=c1[nH]c2cc(Cl)c(Cl)cc2[nH]c1=O", 0.989),
    ("O=C(O)c1nc2cc(Cl)c(Cl)cc2[nH]c1=O", 1.01),
]
